Each entry below carries its reported inhibition.
Test: viability loss of mouse 3T3 cells – cell-based, cherry-pick, single point, set 2, cytotoxicity control, confirmation (AID 651744);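 further: 0% = median of neutral control wells and 100% = median of positive control wells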
Details: NIH/3T3 viability, CellTiter-Glo ATP luminescence, 90 h; at 24.9 µM; hits give high values
In all, about 5,600 compounds went through this assay and about 3,100 (55%) were called active. Roughly 3% stayed inconclusive and do not appear here. So high a share suggests a set chosen from earlier hits. Only a sample is shown.
Supply the numeric figure in %, leaving out any unit text.

Sample answers from the record:
{"Smiles Input": "COc1ccc(S(=O)(=O)N(C)C[C@H]2Oc3c(NC(=O)Nc4cccc5ccccc45)cccc3C(=O)N([C@@H](C)CO)C[C@H]2C)cc1", "Reported Endpoint": "inhibition", "Measured Result": 26.1}
{"Smiles Input": "Cc1ccc(S(=O)(=O)N(C)C[C@@H]2Oc3c(NC(=O)c4nc5ccccc5s4)cccc3C(=O)N([C@H](C)CO)C[C@@H]2C)cc1", "Reported Endpoint": "inhibition", "Measured Result": 49}
{"Smiles Input": "Cc1ccc(S(=O)(=O)N(C)C[C@H]2OCCCC[C@H](C)Oc3ccc(NC(=O)Cc4ccccc4)cc3C(=O)N([C@@H](C)CO)C[C@@H]2C)cc1", "Reported Endpoint": "inhibition", "Measured Result": -4.04}
{"Smiles Input": "C[C@@H]1CCCCO[C@H](CN(C)C(=O)Nc2ccc(C(F)(F)F)cc2)[C@H](C)CN([C@H](C)CO)C(=O)c2cc(NC(=O)Nc3ccc(C(F)(F)F)cc3)ccc2O1", "Reported Endpoint": "inhibition", "Measured Result": -27.4}
{"Smiles Input": "C[C@@H]1CN([C@H](C)CO)C(=O)c2cccc(NC(=O)c3cnccn3)c2O[C@@H]1CN(C)Cc1ccc(C(=O)Nc2ccccc2N)cc1", "Reported Endpoint": "inhibition", "Measured Result": 68.5}

*Q* Item under review: "C[C@@H]1CCCCO[C@H](CN(C)C(=O)CCC(F)(F)F)[C@H](C)CN([C@H](C)CO)C(=O)c2cc(NS(C)(=O)=O)ccc2O1" . Reported inhibition?
*A* 4.09

* * *

Recorded inhibition values for a group of compounds are listed next.
Assay: viability loss of mouse 3T3 cells – cell-based, cherry-pick, single point, set 2, cytotoxicity control, confirmation (AID 651744);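 further: 0% = median of neutral control wells and 100% = median of positive control wells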
Details: NIH/3T3 viability, CellTiter-Glo ATP luminescence, 90 h; at 24.9 µM; hits give high values
In all, about 5,600 compounds went through this assay and about 3,100 (55%) were called active. Inconclusive results (about 3%) are left out. So high a share suggests a set chosen from earlier hits. These entries were drawn from the full list.
Lab book: enter the figure in %, no units written.

{"Smiles Input": "C[C@@H]1CN([C@H](C)CO)C(=O)c2cc(C#Cc3ccccn3)cnc2O[C@H]1CN(C)Cc1ccccc1", "inhibition / %": -11.5}

*Q* Please look up its inhibition: "COc1cccc(S(=O)(=O)N2CCCCN3[C@H](C2)[C@H](c2ccc(C#CC(C)C)cc2)[C@@H]3CO)c1"
*A* 26.4

*Q* What about this compound? "C[C@@H]1CN([C@@H](C)CO)C(=O)c2cc(C#Cc3ccccc3)cnc2O[C@H]1CN(C)C(=O)c1ccccn1"
*A* 34.3

*Q* Thanks! And "Cc1ccc(S(=O)(=O)Nc2ccc3c(c2)C(=O)N([C@@H](C)CO)C[C@@H](C)[C@H](CN(C)C(=O)Nc2cccc4ccccc24)OCCCC[C@H](C)O3)cc1" ?
*A* 14.8
